SYSTEM TESTED: T1, hCMV gH + gL + UL128 + UL130 + UL131A (5-member complex; HEK293T co-transfectant) (hCMV, UniProt P12824 24-743; P16832 31-278; P16837 1-171; P16772 1-214)
T1 construct: whole, on cells; in the functional rows it stands for the complex on virions or transduced cells of the strain or isolate named in the readout; also called gH/gL/UL128-131A complex; pentameric complex
PROTOCOL TEXT: cell competition; competitor 15D8-biotin
MEASUREMENT KIND: Inhibition of binding (%)
The figure you give is taken to be in %; do not add the unit.

Ask: Given the entry 2C12 (antibody, V domains shown, human IgG; also called 2C12-biotin) VH: QITLRESGPTLVKPTQTLTLTCTFSGFSLNTNGVGVGWIRQPPGKALEWLALIYWNGNEGYSPSLKSRLTITKDTSKNQVVLTMTNMDPVDTATYYCVHWPQGLTTVTRLAFDIWGQGTMVTVSS VL: QSALTQPRSVSGSPGQSVTISCTGTTSDVGRYNFVSWYQQHPGKAPKLLMYDVSQRPSGVPSRFSGSKSGNTASLTISGLQAEDEAVFYCCSYAGGNFFSYVFGTGTKVTVL , report its measured Inhibition of binding (%).
Reply: 0
